B1: TRIM9 (parent)
chain: CVQCKMPVCYQCLEEGKHSSHEVK

# Variants of: B1
# test.details: protein stability index of a GFP-peptide fusion (GPS, HEK-293T) (PSI 1-6); higher = more stable;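 note: lentivirally expressed fusions sorted by FACS into six bins by GFP to DsRed ratio, PSI derived from sequencing read proportions per bin multiplied by bin number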
# condition: c terminus: a fixed tail appended
Binary classification by protein stability index, with 4 as an inclusive lower bound for rule met; all other cases are rule not met.

Worked set:
Q11Y | rule not met
K5F | rule not met
E22C | rule met

Could you please find out whether L13Y has protein stability index that meets 4 or exceeds it?
rule not met

Could you please find out whether V23W has protein stability index that meets 4 or exceeds it?
rule not met

Could you please find out whether E22Q has protein stability index that meets 4 or exceeds it?
rule not met
